Hey, just so you know, these numbers are from patent US20200079833A1.

target: GLP-1 receptor (GLP-1R), primary cAMP assay (human, UniProt P43220 24-463); experiment: cell-based or functional assay
Starred links: 1 amine or outer side, 2 acyl side, 3 side chain; linkers in the order of their positions; H or OH if unused. Non-standard residues stand in square brackets, D forms with d. Groups on a side chain read outwards from the residue. Primed or numbered codes have the meaning given here. No end group written: not given here. *: point of attachment. γGlu = O=C(O)[C@H](CCC(=O)[*:2])N[*:1]; Palmitoyl = CCCCCCCCCCCCCCCC(=O)*; αMeF = C[C@](N)(Cc1ccccc1)C(=O)O; αMeK = C[C@](N)(CCCCN)C(=O)O; Lauroyl = CCCCCCCCCCCC(=O)*; PEG2′ = not defined here; Aib = CC(C)(N)C(=O)O
Reported Metric: Primary assay EC50 (cAMP), n2 (nM)

{"columns": ["Binder", "Primary assay EC50 (cAMP), n2 [nM]"],
 "data": [
  ["H[Aib]EGS[αMeF]TSDVSK([PEG2′-PEG2′-γGlu-Palmitoyl])FLEGEAA[αMeK]EFIK([PEG2′-PEG2′-γGlu-Palmitoyl])FVVEGG-NH2 [SEQ ID NO: 250]", 0.061]
]}

[a] H[Aib]EGTFTSDVSK([PEG2′-PEG2′-γGlu-Palmitoyl])FLEGEAAEEFIK([PEG2′-PEG2′-γGlu-Palmitoyl])FVVEGG-NH2 [SEQ ID NO: 245]
[b] H[Aib]EGS[αMeF]TSDVSK([PEG2′-PEG2′-γGlu-Lauroyl])YLEGEAA[αMeK]EFIAWK([PEG2′-PEG2′-γGlu-Lauroyl])VEGG-NH2 [SEQ ID NO: 253]
-- ask Just curious, which one has the larger Primary assay EC50 (cAMP), n2 reading, a or b ? Reply briefly: the label of your chosen item.
-- reply a
